// data source = patent US10968227B2

For each entry below, report its log10 solubility kinetic value.
# experimental-details: Kinetic solubility
# Type: physicochemical
# assay-setup: kinetic from dmso stock
Scale: log10; quantity: solubility kinetic; unit before log: µM

In the examples that follow, each entry is paired with its recorded log10 solubility kinetic.
>>> value_reported("c1cnc2c(Nc3ccc4c(OCCN5CCOCC5)nccc4c3)n[nH]c2c1")
1.31
>>> value_reported("CCOCCOc1nccc2cc(Nc3n[nH]c4cccnc34)ccc12")
1.00
>>> value_reported("C[C@H]1OCC[C@H]1Oc1nccc2cc(Nc3n[nH]c4ncccc34)ccc12")
-0.05
>>> value_reported("COCCOc1nccc2cc(Nc3n[nH]c4ncccc34)ccc12")
-0.10
>>> value_reported("c1cnc2[nH]nc(Nc3ccc4c(OCC5COCCO5)nccc4c3)c2c1 (stereo not drawn)")
0.15
>>> value_reported("COCCOc1nccc2cc(Nc3n[nH]c4nccnc34)ccc12")
-0.05

Batch request: log10 solubility kinetic per item, same order as input.
1. c1cnc2[nH]nc(Nc3ccc4c(OCCN5CCOCC5)nccc4c3)c2c1
2. C[C@H]1C[C@H](Oc2nccc3cc(Nc4n[nH]c5ncccc45)ccc23)CO1

Response:
1. 1.18
2. -0.30

* * *

# experimental-target: mGlu4 (Homo sapiens)
# Sequence (Q14833 33-912 limits assumed): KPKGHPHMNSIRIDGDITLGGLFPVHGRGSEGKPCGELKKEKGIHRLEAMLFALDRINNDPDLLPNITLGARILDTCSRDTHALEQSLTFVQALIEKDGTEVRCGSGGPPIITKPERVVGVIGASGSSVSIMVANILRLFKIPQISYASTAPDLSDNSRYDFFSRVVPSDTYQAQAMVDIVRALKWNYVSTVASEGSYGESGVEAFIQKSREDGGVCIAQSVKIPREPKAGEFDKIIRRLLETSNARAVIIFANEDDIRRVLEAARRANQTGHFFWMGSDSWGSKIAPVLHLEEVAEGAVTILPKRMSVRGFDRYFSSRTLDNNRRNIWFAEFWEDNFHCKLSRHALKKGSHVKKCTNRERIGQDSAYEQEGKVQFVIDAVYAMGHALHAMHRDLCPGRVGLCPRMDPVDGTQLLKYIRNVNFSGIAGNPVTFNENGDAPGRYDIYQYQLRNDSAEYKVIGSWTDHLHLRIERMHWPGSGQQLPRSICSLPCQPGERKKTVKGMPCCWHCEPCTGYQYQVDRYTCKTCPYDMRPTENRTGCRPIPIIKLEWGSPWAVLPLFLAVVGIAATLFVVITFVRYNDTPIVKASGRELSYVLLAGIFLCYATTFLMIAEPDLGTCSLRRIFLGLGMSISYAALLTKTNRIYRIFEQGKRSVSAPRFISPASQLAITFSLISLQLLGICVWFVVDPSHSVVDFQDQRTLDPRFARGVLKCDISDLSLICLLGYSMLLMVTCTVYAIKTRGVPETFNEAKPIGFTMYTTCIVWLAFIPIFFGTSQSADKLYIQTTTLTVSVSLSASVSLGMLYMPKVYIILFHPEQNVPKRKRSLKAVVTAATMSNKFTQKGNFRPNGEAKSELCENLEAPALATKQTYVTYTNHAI
# experimental-details: mGluR4 potentiation (PAM) fluorescence assay with EC20 agonist
For each entry below, report its pEC50 value.
Numbers only, as −log10 of the molar value.

>>> value_reported("c1cnc2c(Nc3ccc4c(OCC5CCCCO5)nccc4c3)n[nH]c2c1 (centres unmarked)")
7.10

Now let's try a different one.
Prompt: Returns the measured pEC50 for the input compound. Input: c1cc2cc(Nc3n[nH]c4nccnc34)ccc2c(OCC2CCCCO2)n1 (centres unmarked)
Response: 7.16

* * *

# experimental-details: Brain-plasma partition
# Assay type: in vivo
# assay-setup: rat
endpoint: Kp
Give bare numbers.

Batch request: Kp per item, same order as input.
1. c1cnc2c(Nc3ccc4c(O[C@H]5CCOC5)nccc4c3)n[nH]c2c1 [Compound 64]
2. CO[C@H](C)COc1nccc2cc(Nc3n[nH]c4nccnc34)ccc12 [Compound 84]
3. c1cnc2[nH]nc(Nc3ccc4c(OCC5CCOCC5)nccc4c3)c2c1 [Compound 77]

Response:
1: 1.22; 2: 1.11; 3: 1.59

Batch request: Kp per item, same order as input.
1. c1cc2cc(Nc3n[nH]c4nccnc34)ccc2c(OCC2CCCCO2)n1 (centres unmarked) [Compound 57]
2. c1cc2cc(Nc3n[nH]c4nccnc34)ccc2c(O[C@@H]2CCOC2)n1 [Compound 58]
3. c1cc2cc(Nc3n[nH]c4nccnc34)ccc2c(OCC2CCOC2)n1 (centres unmarked) [Compound 85]
4. c1cnc2c(Nc3ccc4c(OCC5CCOC5)nccc4c3)n[nH]c2c1 (centres unmarked) [Compound 71]

Response:
0.89
1.29
0.66
0.8

Batch request: Kp per item, same order as input.
1. COCCOc1nccc2cc(Nc3n[nH]c4nccnc34)ccc12 [Compound 81]
2. c1cnc2c(Nc3ccc4c(O[C@@H]5CCCOC5)nccc4c3)n[nH]c2c1 [Compound 62]
3. c1cnc2[nH]nc(Nc3ccc4c(O[C@@H]5CCOC5)nccc4c3)c2c1 [Compound 65]
4. c1cnc2[nH]nc(Nc3ccc4c(O[C@H]5CCOC5)nccc4c3)c2c1 [Compound 66]

Response:
0.4
3.38
1.28
0.87

* * *

# experimental-details: Human intrinsic and hepatic clearance
# Assay type: in vitro ADME
Kindly apply the following: true (1) if CLint scaled is less than 20 mL/min/kg, false (0) in every other case.

Please review the entries below; each comes with its answer.
>>> label_class("COCCOc1nccc2cc(Nc3n[nH]c4nccnc34)ccc12")
"false (0)"
>>> label_class("COCCOc1nccc2cc(Nc3n[nH]c4ncc(F)cc34)ccc12")
"false (0)"
>>> label_class("C[C@H]1C[C@H](Oc2nccc3cc(Nc4n[nH]c5cccnc45)ccc23)CO1")
"true (1)"

Prompt: Say whether its CLint scaled is strictly beneath 20 mL/min/kg. Entry: c1cnc2c(Nc3ccc4c(OCC5CCOC5)nccc4c3)n[nH]c2c1 (centres unmarked)
Response: false (0)

Prompt: Say whether its CLint scaled is strictly beneath 20 mL/min/kg. Entry: C[C@H]1C[C@H](Oc2nccc3cc(Nc4n[nH]c5ncccc45)ccc23)CO1
Response: true (1)

* * *

Observed pIC50, system 2D6 (Homo sapiens (Human)).
Answers are plain numbers, as −log10 of the molar value.

In the examples that follow, each entry is paired with its recorded pIC50.
>>> value_reported("c1cnc2c(Nc3ccc4c(OCC5CCOC5)nccc4c3)n[nH]c2c1 (centres unmarked) [Compound 71]")
4.71
>>> value_reported("CO[C@H](C)COc1nccc2cc(Nc3n[nH]c4cccnc34)ccc12 [Compound 70]")
4.65
>>> value_reported("c1cnc2c(Nc3ccc4c(OC5CCOCC5)nccc4c3)n[nH]c2c1 [Compound 60]")
4.63

Now let's try a different one.
Prompt: Returns the measured pIC50 for the input molecule. Input: c1cnc2c(Nc3ccc4c(O[C@H]5CCCOC5)nccc4c3)n[nH]c2c1 [Compound 61]
Response: 4.71

* * *

# experimental-details: Rat intrinsic and hepatic clearance
# Type: in vitro ADME
For each entry below, report its CLint scaled value.
Answers are plain numbers, in mL/min/kg.

In the examples that follow, each entry is paired with its recorded CLint scaled.
>>> value_reported("C[C@H]1OCC[C@H]1Oc1nccc2cc(Nc3n[nH]c4ncccc34)ccc12")
518
>>> value_reported("c1cnc2c(Nc3ccc4c(O[C@@H]5CCCOC5)nccc4c3)n[nH]c2c1")
461
>>> value_reported("c1cc2cc(Nc3n[nH]c4nccnc34)ccc2c(O[C@@H]2CCOC2)n1")
122
>>> value_reported("c1cnc2[nH]nc(Nc3ccc4c(OCCN5CCOCC5)nccc4c3)c2c1")
923
>>> value_reported("c1cc2cc(Nc3n[nH]c4nccnc34)ccc2c(OCC2COCCO2)n1 (stereo not drawn)")
58.1
>>> value_reported("COCCOc1nccc2cc(Nc3n[nH]c4nccnc34)ccc12")
74.4
>>> value_reported("c1cnc2c(Nc3ccc4c(O[C@H]5CCCOC5)nccc4c3)n[nH]c2c1")
333
>>> value_reported("CCOCCOc1nccc2cc(Nc3n[nH]c4ncccc34)ccc12")
456

Prompt: Returns the measured CLint scaled for the input molecule. Input: c1cnc2c(Nc3ccc4c(OCC5CCCOC5)nccc4c3)n[nH]c2c1 (stereo not drawn)
Response: 273

* * *

# experimental-details: Rat brain fraction unbound
# Format: in vitro ADME
# assay-setup: read-out: Rat Fu Brain
fraction unbound below 0.004 gives -1; fraction unbound at or above it gives 1.

Please review the entries below; each comes with its answer.
>>> label_class("c1cnc2[nH]nc(Nc3ccc4c(O[C@@H]5CCOC5)nccc4c3)c2c1")
-1
>>> label_class("c1cnc2c(Nc3ccc4c(OCC5CCOCC5)nccc4c3)n[nH]c2c1")
-1
>>> label_class("C[C@H]1C[C@H](Oc2nccc3cc(Nc4n[nH]c5ncccc45)ccc23)CO1")
-1
>>> label_class("c1cnc2[nH]nc(Nc3ccc4c(OCC5COCCO5)nccc4c3)c2c1 (stereo not drawn)")
1
>>> label_class("c1cnc2c(Nc3ccc4c(OCC5CCCCO5)nccc4c3)n[nH]c2c1 (stereo not drawn)")
-1

Prompt: API: above_or_equal(metric=fraction unbound, cutoff=0.004) for item CO[C@H](C)COc1nccc2cc(Nc3n[nH]c4cccnc34)ccc12
Response: 1

Prompt: API: above_or_equal(metric=fraction unbound, cutoff=0.004) for item c1cc2cc(Nc3n[nH]c4nccnc34)ccc2c(OCC2CCOC2)n1 (stereo not drawn)
Response: 1

Prompt: API: above_or_equal(metric=fraction unbound, cutoff=0.004) for item c1cc2cc(Nc3n[nH]c4nccnc34)ccc2c(O[C@@H]2CCOC2)n1
Response: 1

* * *

# experimental-details: Brain-plasma partition
# Type: in vivo
# assay-setup: rat, unbound brain-plasma ratio, read-out: Brain-Plasma Kp,ω
endpoint: unbound brain-to-plasma partition coefficient (Kp,uu)
Numbers only.

In the examples that follow, each entry is paired with its recorded unbound brain-to-plasma partition coefficient (Kp,uu).
>>> value_reported("c1cnc2c(Nc3ccc4c(OCC5CCCOC5)nccc4c3)n[nH]c2c1 (stereo not drawn)")
0.13
>>> value_reported("c1cnc2[nH]nc(Nc3ccc4c(O[C@H]5CCOC5)nccc4c3)c2c1")
0.11
>>> value_reported("CO[C@H](C)COc1nccc2cc(Nc3n[nH]c4nccnc34)ccc12")
0.33
>>> value_reported("c1cnc2c(Nc3ccc4c(OC5CCOCC5)nccc4c3)n[nH]c2c1")
0.39
>>> value_reported("COCCOc1nccc2cc(Nc3n[nH]c4nccnc34)ccc12")
0.13

Batch request: unbound brain-to-plasma partition coefficient (Kp,uu) per item, same order as input.
1. C[C@H]1C[C@H](Oc2nccc3cc(Nc4n[nH]c5ncccc45)ccc23)CO1
2. c1cnc2c(Nc3ccc4c(OCC5CCCCO5)nccc4c3)n[nH]c2c1 (stereo not drawn)
3. c1cnc2c(Nc3ccc4c(O[C@@H]5CCOC5)nccc4c3)n[nH]c2c1

Response:
1. 0.21
2. 0.23
3. 0.18
